Reported values of Growth Rate for individual entries
# Test system: HEK-293T
# Protocol description: Incucyte cell viability with HEK293T; further: unitless GR value; below 1 slowed growth and below 0 cell loss
# Type: toxicity, cell-based
# Condition set: human, 6 h, 10 µM, compound concentration 10 uM, replicate number 2

// below: answered molecules
Cc1ccc(C)c(OCCCC(C)(C)C(=O)O[C@@H]2O[C@H](C(=O)O)[C@@H](O)[C@H](O)[C@H]2O)c1 | 0.49
CC1CCN(c2ccnc(NCc3cn(C)cn3)n2)CC1 | 0.85
CCn1cnc2c(-c3ccc(F)c(-c4ccc(S(=O)(=O)CC)cc4OC)c3)cnnc21 | -0.84

// query Please give measured Growth Rate of the following entry: CN1[C@@H](CC(=O)c2ccccc2)CCC[C@H]1C[C@H](O)c1ccccc1.Cl [LOBELINE HYDROCHLORIDE]
// result 0.24

Data credit: ChEMBL document CHEMBL5303304
